Data provenance is PubChem BioAssay (NCI).

# System: SF-268 CNS
# EXPERIMENT: NCI tumour cell line growth inhibition, 48 h

| COMPOUND | STUDY_TARGET | TGI |
| --- | --- | --- |
| COc1ccc2nc(NC(=O)C(=O)NNC(=O)c3ccncc3)sc2c1 | SF-268 CNS | > 100 µM |
| C=CCCCCCCCCC(=O)O | SF-268 CNS | 254 µM |
| CC[C@@]1(CCC(=O)NCCc2c[nH]c3ccccc23)CCC(=O)N2CCc3c([nH]c4ccccc34)[C@H]21 | SF-268 CNS | 30 µM |
| Cn1c(=O)c(Cl)c(N=[N+]=[N-])c2ccccc21 | SF-268 CNS | > 100 µM |
| CC1C(c2ccccc2O)c2cc3c(cc2OC1N1CCOCC1)OCO3 (stereo unspecified) | SF-268 CNS | > 100 µM |
| CCOC(=O)C(=O)Nc1ccccc1C(C)C | SF-268 CNS | > 100 µM |
| CC1=CCC2CC1NC(=O)CCOCCC(=O)NC2(C)C (stereo unspecified) | SF-268 CNS | > 100 µM |
| CC[C@H](C)[C@H](NC(=O)[C@@]1(O)[C@H](O)[C@]2(CC)C=CCN3CC[C@@]4(c5cc(Br)c(OC)cc5N(C)[C@@H]14)[C@@H]32)C(=O)OC | SF-268 CNS | > 100 µM |
| CN(C)c1ccc(N=C2C=CC(=O)c3ccccc32)cc1 | SF-268 CNS | 13.1 µM |
| CCOC(=O)c1cc(C2CCN(Cc3ccccc3)C2=S)c(C(=O)C=[N+]=[N-])[nH]1 (stereo unspecified) | SF-268 CNS | 73.9 µM |
| CC1CN=C(Nc2ccc(F)c(Cl)c2)S1 (stereo unspecified) | SF-268 CNS | > 100 µM |
